Numbers sourced from ChEMBL document CHEMBL4406810.

Overview of recorded inhibition for various compounds
# EXPERIMENTAL SYSTEM: Adenosine receptor A2b (Homo sapiens) (UniProt P29275)
# Sequence (whole entry): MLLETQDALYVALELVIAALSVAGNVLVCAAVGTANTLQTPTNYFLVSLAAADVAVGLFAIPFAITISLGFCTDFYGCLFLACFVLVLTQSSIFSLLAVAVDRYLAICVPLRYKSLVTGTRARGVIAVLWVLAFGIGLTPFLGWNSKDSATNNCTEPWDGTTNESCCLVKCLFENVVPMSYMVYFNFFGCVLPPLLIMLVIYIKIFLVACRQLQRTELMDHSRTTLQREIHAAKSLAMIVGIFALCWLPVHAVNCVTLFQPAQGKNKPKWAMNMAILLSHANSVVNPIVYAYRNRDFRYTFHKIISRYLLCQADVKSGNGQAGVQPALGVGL
# ASSAY INFO: Antagonist activity at human A2BR expressed in CHO cells assessed as inhibition of NECA-stimulated cAMP production at 1 uM by alphascreen assay relative to control
# Format: functional, cell-based

{"columns": ["SMILES ENTRY", "OUTPUT UNIT", "inhibition"],
 "data": [
  ["N#Cc1c(N)nc(NCCO)c(C#N)c1-c1ccco1", "%", 6],
  ["N#Cc1c(N)nc(NCCO)c(C#N)c1-c1cccs1", "%", 4],
  ["N#Cc1c(N)nc(SCc2ccncc2)c(C#N)c1-c1ccco1", "%", 40],
  ["N#Cc1c(N)nc(SCc2cccc(C(=O)O)c2)c(C#N)c1-c1ccco1", "%", 12],
  ["N#Cc1c(N)nc(SCCO)c(C#N)c1-c1ccco1", "%", 33],
  ["N#Cc1c(N)nc(SCCO)c(C#N)c1-c1ccoc1", "%", 38],
  ["COC(=O)c1cccc(CSc2nc(N)c(C#N)c(-c3ccco3)c2C#N)c1", "%", 25]
]}

---

# EXPERIMENTAL SYSTEM: UniProtKB P30542
# Sequence (P30542 whole entry): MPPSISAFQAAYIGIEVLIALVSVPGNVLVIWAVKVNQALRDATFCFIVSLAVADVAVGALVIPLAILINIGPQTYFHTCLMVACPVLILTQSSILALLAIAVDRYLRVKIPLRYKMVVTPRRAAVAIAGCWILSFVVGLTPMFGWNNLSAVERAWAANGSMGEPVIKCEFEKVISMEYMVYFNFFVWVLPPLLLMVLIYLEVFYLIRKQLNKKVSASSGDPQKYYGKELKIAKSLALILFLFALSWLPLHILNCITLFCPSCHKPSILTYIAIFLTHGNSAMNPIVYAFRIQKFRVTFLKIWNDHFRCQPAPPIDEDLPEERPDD
pKi: −log10 of the molar value.
MEASURED PROPERTY: pKi

{"columns": ["SMILES ENTRY", "MEASURED VALUE"],
 "data": [
  ["COC(=O)CSc1nc(N)c(C#N)c(-c2ccco2)c1C#N", 6.97],
  ["N#Cc1c(N)nc(SCc2cccc(C(=O)O)c2)c(C#N)c1-c1ccco1", 8.39],
  ["N#CCSc1nc(N)c(C#N)c(-c2ccco2)c1C#N", 7.03],
  ["COC(=O)c1ccc(CSc2nc(N)c(C#N)c(-c3ccco3)c2C#N)o1", 7.09],
  ["N#Cc1c(N)nc(SCC(=O)c2ccccc2)c(C#N)c1-c1ccco1", 7.64],
  ["COC(=O)c1cccc(CSc2nc(N)c(C#N)c(-c3cccnc3)c2C#N)c1", 8.93],
  ["COC(=O)c1cccc(CSc2nc(N)c(C#N)c(-c3ccco3)c2C#N)c1", 8.14],
  ["N#Cc1c(N)nc(SCc2cccc(C(N)=O)c2)c(C#N)c1-c1ccco1", 8.88],
  ["N#Cc1c(N)nc(SCCO)c(C#N)c1-c1cccnc1", 7.46],
  ["N#Cc1c(N)nc(OCCO)c(C#N)c1-c1ccco1", 6.20],
  ["N#Cc1c(N)nc(SCCO)c(C#N)c1-c1ccsc1", 7.22]
]}

---

# EXPERIMENTAL SYSTEM: Adenosine receptor A1 (Homo sapiens) (UniProt P30542)
# ASSAY INFO: Inverse agonist activity at human A1AR expressed in CHO cells assessed as increase in forskolin-stimulated cAMP production by alphascreen assay relative to DPCPX
# Type: functional, cell-based
# binarize Emax: threshold 50% inclusive, high side YES, low side NO

{"columns": ["SMILES ENTRY", "CLASSIFICATION"],
 "data": [
  ["N#Cc1c(N)nc(SCCO)c(C#N)c1-c1ccco1", "YES"],
  ["N#Cc1cccc(CSc2nc(N)c(C#N)c(-c3ccco3)c2C#N)c1", "YES"],
  ["N#Cc1c(N)nc(SCc2ccccn2)c(C#N)c1-c1ccco1", "NO"],
  ["N#Cc1c(N)nc(SCc2cccc(C(=O)O)c2)c(C#N)c1-c1ccco1", "NO"],
  ["N#Cc1c(N)nc(SCC(=O)OCc2ccccc2)c(C#N)c1-c1ccco1", "YES"],
  ["N#Cc1c(N)nc(SCC(=O)c2ccccc2)c(C#N)c1-c1ccco1", "NO"]
]}

---

# EXPERIMENTAL SYSTEM: Adenosine receptor A2a (Homo sapiens)
# Sequence (P29274 whole entry): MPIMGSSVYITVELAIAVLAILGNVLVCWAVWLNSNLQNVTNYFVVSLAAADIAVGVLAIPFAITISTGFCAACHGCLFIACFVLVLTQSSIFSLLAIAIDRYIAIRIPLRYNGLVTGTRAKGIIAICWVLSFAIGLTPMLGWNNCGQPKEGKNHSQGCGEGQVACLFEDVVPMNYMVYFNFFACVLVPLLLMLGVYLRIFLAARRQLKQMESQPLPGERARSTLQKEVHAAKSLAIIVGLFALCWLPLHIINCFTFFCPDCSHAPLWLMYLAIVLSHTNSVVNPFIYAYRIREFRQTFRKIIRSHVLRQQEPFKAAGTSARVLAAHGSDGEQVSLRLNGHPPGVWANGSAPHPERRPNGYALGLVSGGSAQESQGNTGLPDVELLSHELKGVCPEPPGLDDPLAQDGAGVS
# ASSAY INFO: Displacement of [3H]ZM241385 from human A2AR expressed in CHO cell membranes at 1 uM measured after 60 mins by scintillation counting method relative to control

{"columns": ["SMILES ENTRY", "inhibition / %"],
 "data": [
  ["COC(=O)c1ccc(CSc2nc(N)c(C#N)c(-c3ccco3)c2C#N)o1", 1],
  ["N#Cc1c(NC2CC2)nc(SCCO)c(C#N)c1-c1ccco1", 30],
  ["N#Cc1c(N)nc(SCCO)c(C#N)c1-c1ccoc1", 19],
  ["N#Cc1c(NC2CCCC2)nc(SCCO)c(C#N)c1-c1ccco1", 8],
  ["N#Cc1c(N)nc(OCCO)c(C#N)c1-c1ccco1", 25],
  ["N#Cc1c(N)nc(SCCO)c(C#N)c1-c1ccco1", 27],
  ["N#Cc1c(N)nc(NCCO)c(C#N)c1-c1cccs1", 33],
  ["N#Cc1c(N)nc(SCCO)c(C#N)c1-c1cccs1", 1],
  ["N#Cc1c(Nc2ccc(I)cc2)nc(SCCO)c(C#N)c1-c1ccco1", 1],
  ["N#Cc1c(N)nc(NCCO)c(C#N)c1-c1cccnc1", 1],
  ["N#Cc1c(N)nc(SCC(=O)OCc2ccccc2)c(C#N)c1-c1ccco1", 8],
  ["N#Cc1c(N)nc(SCC(N)=O)c(C#N)c1-c1ccco1", 21]
]}

---

# ASSAY INFO: Half life in Sprague-Dawley rat plasma at 1 uM by LC-MS/MS analysis
# Type: ADME, cell-free
Overview of recorded half-life at 1 µM for various compounds
MEASURED PROPERTY: half-life at 1 µM (min)

{"columns": ["SMILES ENTRY", "MEASURED PROPERTY", "READING QUALIFIER", "MEASURED VALUE"],
 "data": [
  ["COC(=O)c1cccc(CSc2nc(N)c(C#N)c(-c3ccco3)c2C#N)c1", "half-life at 1 µM", "≥", 240],
  ["CCOC(=O)[C@H](CCc1ccccc1)N[C@@H](C)C(=O)N1CCC[C@H]1C(=O)O", "half-life at 1 µM", "=", 22]
]}

---

# Tested on: CHO
# ASSAY INFO: Effect on cAMP level in wild-type CHO cells at 0.001 to 1 uM by alphascreen assay
# Type: functional, cell-based
# RECORDED CONDITIONS: Cricetulus griseus
Calls of active or inactive are those of the source. The calls are words filed in the database; no cut-off is given here.

{"columns": ["SMILES ENTRY", "Activity"],
 "data": [
  ["N#Cc1c(N)nc(SCc2cccc(CO)c2)c(C#N)c1-c1ccco1", "inactive"],
  ["COC(=O)c1ccc(CSc2nc(N)c(C#N)c(-c3ccco3)c2C#N)o1", "inactive"],
  ["N#Cc1c(NC2CC2)nc(SCCO)c(C#N)c1-c1ccco1", "inactive"],
  ["N#Cc1c(N)nc(NCCO)c(C#N)c1-c1ccco1", "inactive"],
  ["COC(=O)c1cccc(CSc2nc(N)c(C#N)c(-c3ccco3)c2C#N)c1", "inactive"],
  ["N#Cc1c(N)nc(OCCO)c(C#N)c1-c1ccco1", "inactive"],
  ["COC(=O)CSc1nc(N)c(C#N)c(-c2ccco2)c1C#N", "inactive"],
  ["N#Cc1c(N)nc(SCCO)c(C#N)c1-c1ccsc1", "inactive"],
  ["N#Cc1c(N)nc(NCCO)c(C#N)c1-c1cccs1", "inactive"],
  ["N#Cc1c(N)nc(SCCO)c(C#N)c1-c1ccoc1", "inactive"],
  ["N#Cc1c(N)nc(NCCO)c(C#N)c1-c1cccnc1", "inactive"],
  ["N#Cc1c(N)nc(SCC(=O)c2ccccc2)c(C#N)c1-c1ccco1", "inactive"]
]}
